Biological target: 17β-hydroxysteroid dehydrogenase type 2 (17β-HSD type 2) (Homo sapiens, UniProt P37059)
Construct: expressed in transfected cells; host or cells: MCF-7
Sequence (P37059 1-387): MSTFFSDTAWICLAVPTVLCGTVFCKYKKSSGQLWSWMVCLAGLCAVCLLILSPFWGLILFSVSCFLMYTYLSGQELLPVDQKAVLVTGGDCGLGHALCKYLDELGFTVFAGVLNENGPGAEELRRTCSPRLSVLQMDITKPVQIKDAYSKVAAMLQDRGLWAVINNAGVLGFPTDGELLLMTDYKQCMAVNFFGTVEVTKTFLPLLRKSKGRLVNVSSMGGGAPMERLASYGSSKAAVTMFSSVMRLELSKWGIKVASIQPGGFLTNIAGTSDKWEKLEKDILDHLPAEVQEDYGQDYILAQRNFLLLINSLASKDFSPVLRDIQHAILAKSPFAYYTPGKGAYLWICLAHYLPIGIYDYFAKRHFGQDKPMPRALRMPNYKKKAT
Test: Inhibition of 17β-HSD type 2 in MCF-7 cells stably expressing the isoenzyme (tritium labeled estradiol conversion, HPLC)
Format: cell-based
Settings: 10 μM test compound; MCF-7 cells expressing 17β-HSD type 2; 2 nM tritium labeled estradiol
Exam item: assign met to entries whose % Inhibition HSD2 10 μM is below 50% and not met to entries at or above 50%. Note that a value of exactly 50% receives not met.

Reference set, count: 6
COCc1nc2sc3c(O)cccc3c2c(=O)n1CCc1ccccc1: not met
COCc1nc2sc3c(O)cccc3c2c(=O)n1CCc1cccs1: not met
CC(C)=Cc1nc2sc3c(O)cccc3c2c(=O)n1Cc1ccccc1: not met
O=c1c2c(nc(CCC3CCCC3)n1CCc1ccccc1)sc1c(O)cccc12: met
O=c1c2c(nc(CCC3CCCC3)n1CCc1cccs1)sc1c(O)cccc12: met
O=c1c2c(nc(CCc3ccccc3)n1Cc1ccccc1)sc1c(O)cccc12: met

Now examine the next entry.
Ask: Lab log: compare recorded % Inhibition HSD2 10 μM with 50%; is it strictly lower for O=c1c2c(nc(CCc3ccccc3)n1CCc1cccs1)sc1c(O)cccc12 ?
Reply: met

###

# inhibition at 10 µM values compiled below
target: 17β-hydroxysteroid dehydrogenase type 2 (17β-HSD type 2) (Homo sapiens, UniProt P37059); construct: expressed in transfected cells; host or cells: MCF-7; test: Inhibition of 17β-HSD type 2 in MCF-7 cells stably expressing the isoenzyme (tritium labeled estradiol conversion, HPLC); format: cell-based; conditions: MCF7; 10 μM test compound; MCF-7 cells expressing 17β-HSD type 2; 2 nM tritium labeled estradiol; read-out: % Inhibition HSD2 10 μM

Ask: Quick check: inhibition at 10 µM on 17β-hydroxysteroid dehydrogenase type 2 (17β-HSD type 2) (Homo sapiens, UniProt P37059), item COCCn1c(-c2cc(OC)c(OC)c(OC)c2)nc2sc3c(c2c1=O)CCCC3 ?
Reply: 7.4%

Ask: Recall the recorded inhibition at 10 µM for O=c1c2c3c(sc2nc(-c2cc(O)c(O)c(O)c2)n1Cc1ccccc1)CCCC3 with 17β-hydroxysteroid dehydrogenase type 2 (17β-HSD type 2) (Homo sapiens, UniProt P37059) and state it.
Reply: 17.7%

Ask: // fetch 17β-hydroxysteroid dehydrogenase type 2 (17β-HSD type 2) (Homo sapiens, UniProt P37059) inhibition at 10 µM for Cc1nc2sc3c(c2c(=O)n1-c1ccccc1)CCC(Br)C3=O (stereo not shown)
Reply: 16.3%

// provenance: patent US7524853B2
